We begin with a simple list: items and their reported reverse-splicing fitness.
B1: Azoarcus group I ribozyme (parent)
chain: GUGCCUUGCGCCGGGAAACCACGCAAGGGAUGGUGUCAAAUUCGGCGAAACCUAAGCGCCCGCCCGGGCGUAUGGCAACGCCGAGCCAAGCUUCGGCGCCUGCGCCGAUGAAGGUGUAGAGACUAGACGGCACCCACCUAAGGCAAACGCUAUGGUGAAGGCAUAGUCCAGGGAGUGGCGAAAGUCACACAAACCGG

Variants of: B1
protocol: reverse-splicing fitness (ratio to wild type); higher = more active; in vitro selection; Mg2+ level not given
quantity_kind: reverse-splicing fitness

{"variant": "C82A A111C C150A C169G U176C", "reported_result": 0.0222}
{"variant": "C82A A111U A120C A145U C169A U176C", "reported_result": 0.0235}
{"variant": "C82G A120U A145C C169U", "reported_result": 0.00694}
{"variant": "C82U A111U A145C C169A U176G", "reported_result": 0.00457}
{"variant": "C82U A111G A120U A145U C150A U176G", "reported_result": 0.00212}
{"variant": "C82G A111U C150U C169U U176G", "reported_result": 0.00694}
{"variant": "C82G A111G A120G A145G C150G C169U", "reported_result": 0.00986}
{"variant": "C82U A111U A120C A145G C150A C169A U176A", "reported_result": 0.0207}
{"variant": "C82U A111C A120C C150A C169G U176G", "reported_result": 0.00704}
{"variant": "C82U A111U C150G C169G U176A", "reported_result": 0.00711}
{"variant": "C82G A120U C169U U176G", "reported_result": 0.00154}
{"variant": "A111U A120G A145C C150G C169A U176A", "reported_result": 0.00822}
{"variant": "C82A A111G A120C A145C C169A U176C", "reported_result": 0.0109}
{"variant": "C82G A111U A145C C169U U176C", "reported_result": 0.0119}
{"variant": "C82G A111U A120C A145C C150G C169U U176A", "reported_result": 0.00676}
{"variant": "C82A A111U C169U", "reported_result": 0.014}
{"variant": "A145C C150G C169U U176A", "reported_result": 0.0183}
{"variant": "C82A A120U U176A", "reported_result": 0.0313}
{"variant": "C82U A120C A145U C150A", "reported_result": 0.021}
{"variant": "C82A A111C A120U A145U C150G C169U", "reported_result": 0.00325}
{"variant": "C82G A111G A120U A145U C150A C169G U176A", "reported_result": 0.00229}
{"variant": "C82A A111G A120C A145G C150U C169U U176G", "reported_result": 0.00671}
{"variant": "C82G A111U A120C C150U C169A U176G", "reported_result": 0.00644}
{"variant": "C82G A111U A120G A145C C150A C169G U176G", "reported_result": 0.00516}
{"variant": "A120U A145G C150U C169U U176C", "reported_result": 0.108}
{"variant": "C82G A111G A145G C150A C169U U176G", "reported_result": 0.00674}
{"variant": "C82A A111C A145C C150A C169U", "reported_result": 0.00921}
{"variant": "C82U A111C A120C A145U C150G", "reported_result": 0.00723}
{"variant": "C82A A111C A120U U176C", "reported_result": 0.0115}
{"variant": "A120C C169U", "reported_result": 0.435}
{"variant": "A111C A120U A145C C150U C169U U176A", "reported_result": 0.00478}
{"variant": "C82A A111G A120G C150A C169G", "reported_result": 0.00987}
{"variant": "C82G A111G A120U C150G C169G U176A", "reported_result": 0.00638}
